Molecular target: ITSN1-1 SH3 domain (aa 740-806) (Homo sapiens, UniProt Q15811)
Sequence (Q15811 740-806): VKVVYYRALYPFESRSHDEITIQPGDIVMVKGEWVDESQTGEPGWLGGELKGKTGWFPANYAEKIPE
Peptide text beside a SMILES is read from it.
measured_attribute: Kd (µM)
// return numeric value only (unit: µM, not printed)

Exam item: Respond only with Kd recorded for CC(C)[C@H](NC(=O)[C@@H]1CCCN1C(=O)[C@@H]1CCCN1C(=O)[C@H](C)NC(=O)[C@H](CCC(=O)O)NC(=O)[C@H](CS)NC(=O)[C@@H](N)CCCNC(=N)N)C(=O)N1CCC[C@H]1C(=O)N1CCC[C@H]1C(=O)N[C@@H](CCCNC(=N)N)C(=O)N[C@@H](CCCNC(=N)N)C(=O)N[C@@H](CCC(=O)O)C(=O)N[C@@H](CCCNC(=N)N)C(=O)NCC(=O)O [RP2, reference compound] (H-RCEAPPVPPRRERG-OH)
Marked response: 11

* * *

Listed molecules paired with reported Kd
Target: DLG2 SH3 domain (aa 536-606) (Homo sapiens)
Sequence (Q15700 536-606): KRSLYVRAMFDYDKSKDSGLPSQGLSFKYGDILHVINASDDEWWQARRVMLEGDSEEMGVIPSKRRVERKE
Peptide text beside a SMILES is read from it.

[
  {
    "molecule": "CC[C@H](C)[C@H](NC(=O)[C@H](Cc1c[nH]cn1)NC(=O)[C@@H](N)CCC(N)=O)C(=O)N1CCC[C@H]1C(=O)N[C@@H](CCCCN)C(=O)N[C@@H](CC(C)C)C(=O)N1CCC[C@H]1C(=O)N1CCC[C@H]1C(=O)N[C@@H](CCCCN)C(=O)N[C@H](C(=O)N[C@@H](Cc1ccc(O)cc1)C(=O)O)[C@@H](C)O [Peptide P10] (H-QHIPKLPPKTY-OH; N-terminus and C-terminus assumed)",
    "Kd": "> 200 µM"
  }
]

Exam item: Recall the reported Kd of CC[C@H](C)[C@H](N)C(=O)N[C@@H](C)C(=O)NCC(=O)N1CCC[C@H]1C(=O)N1CCC[C@H]1C(=O)N[C@H](C(=O)N1CCC[C@H]1C(=O)N1CCC[C@H]1C(=O)N[C@@H](CCCNC(=N)N)C(=O)N[C@@H](CCC(N)=O)C(=O)N[C@@H](CO)C(=O)O)C(C)C [Peptide P9] (H-IAGPPVPPRQS-OH) on DLG2 SH3 domain (aa 536-606) (Homo sapiens) and write it down.
Marked response: > 200 µM

* * *

Target: NCK1-2 SH3 domain (aa 106-165) (Homo sapiens, UniProt P16333)
Construct: 106-165; GST (N); made in house; host or cells: Escherichia coli CodonPlus, Rosetta, BL21(DE3)
Assay: Fluorescence polarization SH3 domain-PRP binding
Settings: FP, 0.2 µM fluorescein-labeled peptide, SH3 domain 0-200 µM, Tris/HCl pH 7.5, 25 °C, quadratic fit, read-out: Kd
Peptide text beside a SMILES is read from it.
measured_attribute: Kd

Worked cases, answers included:
[
  {
    "molecule": "CC[C@H](C)[C@H](NC(=O)[C@H](C)NC(=O)[C@@H]1CCCN1C(=O)[C@@H]1CCCN1C(=O)[C@H](CO)NC(=O)[C@H](CC(=O)O)NC(=O)[C@@H](N)CC(C)C)C(=O)N1CCC[C@H]1C(=O)N1CCC[C@H]1C(=O)N[C@@H](CCCNC(=N)N)C(=O)N[C@@H](CCC(N)=O)C(=O)N1CCC[C@H]1C(=O)N[C@H](C(=O)N[C@@H](CO)C(=O)N[C@@H](CCCCN)C(=O)O)[C@@H](C)O [Peptide P4] (H-LDSPPAIPPRQPTSK-OH)",
    "Kd": "> 200 µM"
  },
  {
    "molecule": "CC(C)C[C@H](NC(=O)[C@@H]1CCCN1C(=O)[C@@H]1CCCN1C(=O)[C@H](CO)NC(=O)[C@@H]1CCCN1C(=O)[C@H](CC(C)C)NC(=O)[C@H](Cc1c[nH]cn1)NC(=O)[C@@H](N)CCCNC(=N)N)C(=O)N[C@H](C(=O)N[C@@H](CCC(N)=O)C(=O)O)[C@@H](C)O [Peptide P8] (H-RHLPSPPLTQ-OH; N-terminus and C-terminus assumed)",
    "Kd": "> 200 µM"
  }
]

Exam item: Respond only with Kd recorded for CC(C)[C@H](N)C(=O)N1CCC[C@H]1C(=O)N[C@H](C(=O)N1CCC[C@H]1C(=O)N1CCC[C@H]1C(=O)N1CCC[C@H]1C(=O)N[C@H](C(=O)N1CCC[C@H]1C(=O)N1CCC[C@H]1C(=O)N[C@@H](CCCNC(=N)N)C(=O)N[C@@H](CCCNC(=N)N)C(=O)N[C@@H](CCCNC(=N)N)C(=O)O)C(C)C)C(C)C [RP1, reference compound]
Marked response: 2 µM
